- TARGET UNDER TEST: UniProt Q9NYK1
- EXPERIMENT DESCRIPTION: HEK293-Blue-hTLR-7 cells assay (SEAP reporter)
- Type: cell-based
- EXPERIMENTAL CONDITIONS: HEK293-Blue-hTLR-7 cells, SEAP reporter, 20 hrs; active form; read-out: HEK293-hTLR-7 EC50 (Active form)
I'd appreciate it if you could supply pEC50 values for the items below.
Give bare numbers, as −log10 of the molar value.

- COMPOUND: "CCCS(=N)(=O)c1nc(N)c2[nH]c(=O)n(Cc3ccc(C)cc3)c2n1 (single isomer, unassigned) [Compound 36g-A]"
  pEC50: 7.72
- COMPOUND: "CC[S@](=N)(=O)c1nc(N)c2[nH]c(=O)n(Cc3ccc(Cl)cc3)c2n1 (single isomer, unassigned) [Compound 41c-A]"
  pEC50: 7.15
- COMPOUND: "CCCS(=N)(=O)c1nc(N)c2[nH]c(=O)n(Cc3ccccc3)c2n1 (stereo not shown) [Compound 1e]"
  pEC50: 7.19

# context switch: different compound, same pEC50
Reported pEC50, compound CCCS(=N)(=O)c1nc(N)c2[nH]c(=O)n(Cc3ccc(C)cc3)c2n1 (single isomer, unassigned) [Compound 36g-B] : ____ 7.66

----------
- TARGET UNDER TEST: human TLR7 (Homo sapiens, UniProt Q9NYK1)
- Sequence (Q9NYK1 27-1049): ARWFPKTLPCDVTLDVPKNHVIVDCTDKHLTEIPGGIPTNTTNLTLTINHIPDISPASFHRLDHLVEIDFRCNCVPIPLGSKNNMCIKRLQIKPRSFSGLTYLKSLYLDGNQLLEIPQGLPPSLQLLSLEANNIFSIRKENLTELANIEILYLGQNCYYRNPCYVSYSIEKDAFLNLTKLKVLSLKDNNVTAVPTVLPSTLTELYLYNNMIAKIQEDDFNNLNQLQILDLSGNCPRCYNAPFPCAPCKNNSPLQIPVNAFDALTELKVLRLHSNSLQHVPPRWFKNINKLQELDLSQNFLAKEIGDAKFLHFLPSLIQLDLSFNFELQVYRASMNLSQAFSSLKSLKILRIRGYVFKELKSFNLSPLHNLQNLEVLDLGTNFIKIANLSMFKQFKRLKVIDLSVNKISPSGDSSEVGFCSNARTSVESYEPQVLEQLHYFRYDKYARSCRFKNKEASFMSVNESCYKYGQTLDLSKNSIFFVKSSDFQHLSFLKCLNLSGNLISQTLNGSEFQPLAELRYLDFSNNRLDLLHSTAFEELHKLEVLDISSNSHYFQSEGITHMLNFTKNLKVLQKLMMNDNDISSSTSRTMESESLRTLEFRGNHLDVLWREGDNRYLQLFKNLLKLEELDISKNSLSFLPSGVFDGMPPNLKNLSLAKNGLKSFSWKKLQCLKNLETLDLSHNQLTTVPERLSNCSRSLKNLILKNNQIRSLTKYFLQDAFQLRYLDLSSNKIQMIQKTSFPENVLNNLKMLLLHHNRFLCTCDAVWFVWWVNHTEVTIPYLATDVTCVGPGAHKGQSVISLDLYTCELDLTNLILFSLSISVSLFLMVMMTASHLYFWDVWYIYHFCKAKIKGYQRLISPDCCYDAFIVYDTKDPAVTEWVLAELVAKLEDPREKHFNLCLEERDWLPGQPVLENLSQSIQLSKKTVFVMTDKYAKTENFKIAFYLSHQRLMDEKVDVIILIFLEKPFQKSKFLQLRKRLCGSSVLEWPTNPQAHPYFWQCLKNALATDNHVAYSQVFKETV
- EXPERIMENT DESCRIPTION: HEK293-Blue-hTLR-7 cells assay (SEAP reporter)
- Format: cell-based
- EXPERIMENTAL CONDITIONS: EC50 of prodrug over EC50 of corresponding active form
- From the text: HEK293-Blue-hTLR-7 Cells Assay: A stable HEK293-Blue-hTLR-7 cell line was purchased from InvivoGen (Cat.#: hkb-htlr7, San Diego, Calif., USA). These cells were designed for studying the stimulation of human TLR7 by monitoring the activation of NF-κB. A SEAP (secreted embryonic alkaline phosphatase) reporter gene was placed under the control of the IFN-β minimal promoter fused to five NF-κB and AP-1-binding sites. […]
Each record's class is read off its Ratio (EC50(prodrug)/EC50(active form)) using these ranges: band 1: < 300; band 2: ≥ 300 and < 1000; band 3: ≥ 1000

- COMPOUND: "CCCS(=N)(=O)c1nc(N)c2c(n1)n(Cc1ccccc1)c(=O)n2C(=O)N1CCN(C)CC1 (stereo not drawn)"
  ASSIGNED LABEL: "band 1"
- COMPOUND: "CCC[S@](=N)(=O)c1nc(N)c2c(n1)n(Cc1ccc(C)cc1)c(=O)n2C(=O)N1CCCC1 (stereo in doubt) [Example 37-B]"
  ASSIGNED LABEL: "band 3"
- COMPOUND: "CCCS(=N)(=O)c1nc(N)c2c(n1)n(Cc1ccccc1)c(=O)n2C(=O)N(C)CCOC (stereo not drawn) [Example 2]"
  ASSIGNED LABEL: "band 2"

Which class does CCCCN(C)C(=O)n1c(=O)n(Cc2ccc(Cl)cc2)c2nc([S@@](=N)(=O)CCC)nc(N)c21 [Example 34-B] fall in? band 2

Another compound to check: CCCS(=N)(=O)c1nc(N)c2c(n1)n(Cc1ccccc1)c(=O)n2C(=O)N(C)CC(C)C (stereo not drawn) band 3

Another compound to check: CCCS(=N)(=O)c1nc(N)c2c(n1)n(Cc1ccccc1)c(=O)n2C(=O)N(C)CCOC (single isomer, unassigned) [Example 2-A] band 1

Another compound to check: `CCCN(C)C(=O)n1c(=O)n(Cc2ccc(Cl)cc2)c2nc([S@](=N)(=O)CC)nc(N)c21` band 2

Another compound to check: CCCCN(C)C(=O)n1c(=O)n(Cc2ccc(C)cc2)c2nc(S(=N)(=O)CCC)nc(N)c21 (stereo not drawn) band 3
